B1: KCNG1 (parent)
chain: LFVTVTAVNLSVSTLPSLREEEEQ

# Variants of: B1
# Assay procedure: protein stability index of a GFP-peptide fusion (GPS, HEK-293T) (PSI 1-6); higher = more stable;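 note: lentivirally expressed fusions sorted by FACS into six bins by GFP to DsRed ratio, PSI derived from sequencing read proportions per bin multiplied by bin number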
# Test parameters: c terminus: a fixed tail appended
Readout type: protein stability index
// no unit string in output, number only

{"Chain": "LFVTVTAVNLSVSTIPSLREEEEQ", "protein stability index": 1.36}
{"Chain": "LFVTVTAVNLSVSWLPSLREEEEQ", "protein stability index": 2.87}
{"Chain": "LFVTVTAVNLSVSTLPSLREEKEQ", "protein stability index": 3.13}
{"Chain": "LFVNVTAVNLSVSTLPSLREEEEQ", "protein stability index": 2.45}
{"Chain": "LFVTVTAVNLSVSTLPSLREEEYQ", "protein stability index": 2.93}
{"Chain": "LYVTVTAVNLSVSTLPSLREEEEQ", "protein stability index": 1.75}

Prompt: Find the recorded protein stability index belonging to LFVTVTAVPLSVSTLPSLREEEEQ and report it.
Completion: 1.73

Prompt: Find the recorded protein stability index belonging to LFNTVTAVNLSVSTLPSLREEEEQ and report it.
Completion: 4.51

meta.source: the supplement of paper PMC10567573
